// values below are reported Enzyme Activity Endpoint Assay: scIgG
- Tgt: pooled human IgG
Measured metric: Enzyme Activity Endpoint Assay: scIgG (ng/µL)

INSERT INTO measurements (protein, result_units, measured_value) VALUES
  ('PRT-41 (protein) MANQEIRYSEVTPYHVTSVWTKGVTPPANFTQGEDVFHAPYVANQGWYDITKTFNGKDDLLCGAATAGNMLHWWFDQNKDYIDRYLEEHPEKQKINFNGEQMFDVKEAIDTKNSQLDSKLFEYFKEKAFPYLSTKHLGVFPDLVLDMFINGYRLSLTNHGPTPVKEGSKDPRGGIFDAVFTRGDQSKLLTSRHDFKEKNLKEISDLIKKELTEGKALGLSHTYANVRINHVINLWGADFDSNGNLKAIYVTDSDSNASIGMKKYFVGVNSAGKVAISAKEIKEDNIGAQVLGLFTLSTGQDSWNQTN', 'ng/µL', 50),
  ('PRT-536 (protein) MANQEIRYSGDSEWANKKVWVYGITPAEEGAWLYSTYYLPWKKEYGWYDCNKRNPTADGMMCWAASASNLMHWWIAQNKRYIDLYGDRYKGPDKINFNGEQMFDVKEYIDPLDKPQESDIFQCFIDKSFADLSTKHEAGKGDEGINWFIHGIIPSYPAHGPTPVKLRYPYNPAGYFKDVFPRGDGVVLGGNNGDFKELGKERFNETIKDALANKKGIGLSIGPVNVRKSHVETMWGAEFDENGDVSYIYMADNNDRWGVGCIRLQIVYVEGATYTCYKTEIIPSDRPIPINRLVTVELGEEYWKQTNLEHHHHHH', 'ng/µL', 0);
